B1: P2RY14 (parent)
chain: KLLSVIVWMLMLLLAVPNIILTNQ

Variants of: B1
experimentDescription: protein stability index of a GFP-peptide fusion (GPS, HEK-293T) (PSI 1-6); higher = more stable;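 also: lentivirally expressed fusions sorted by FACS into six bins by GFP to DsRed ratio, PSI derived from sequencing read proportions per bin multiplied by bin number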
protocolConditions: c terminus: a fixed tail appended
# cutoff 3 applies to protein stability index; >= gives Condition met, < gives Condition not met

Q: Has KLLSVIVWMLMRLLAVPNIILTNQ [L12R] a recorded protein stability index greater than or equal to 3?
A: Condition not met

Q: Check the entry KLLSVMVWMLMLLLAVPNIILTNQ [I6M] : does protein stability index equal or exceed 3?
A: Condition met

Q: Reported protein stability index at or above 3? KLLSVIQWMLMLLLAVPNIILTNQ [V7Q]
A: Condition not met

Q: Please indicate if the recorded protein stability index for KLLSVIVWMLMLLLAVPNIILANQ [T22A] meets or exceeds 3.
A: Condition not met

Q: Determine whether this variant has protein stability index no lower than 3: KLLSVIVWMLMPLLAVPNIILTNQ [L12P]
A: Condition met

Q: For this variant, is measured protein stability index 3 or higher? KLLSVDVWMLMLLLAVPNIILTNQ [I6D]
A: Condition not met

Q: Dear colleague, could you confirm whether KLLSVIVVMLMLLLAVPNIILTNQ [W8V] has protein stability index at or above 3?
A: Condition not met

Q: Check this variant for protein stability index at or above 3: KGLSVIVWMLMLLLAVPNIILTNQ [L2G]
A: Condition not met

Q: Confirm if protein stability index reported for the variant KLLSVIVWMDMLLLAVPNIILTNQ [L10D] is 3 or above.
A: Condition not met

Q: Is reported protein stability index greater than or equal to 3 here: KLLSVIVWMLMLLLAVPNIIITNQ [L21I]
A: Condition met

Q: I'd appreciate it if you could say whether KLLSVGVWMLMLLLAVPNIILTNQ [I6G] has protein stability index at least equal to 3.
A: Condition not met

Q: # check: protein stability index of KLLQVIVWMLMLLLAVPNIILTNQ [S4Q] is greater than or equal to 3
A: Condition not met

Q: I'd appreciate it if you could say whether KLLSVIVWMPMLLLAVPNIILTNQ [L10P] has protein stability index at least equal to 3.
A: Condition not met

Q: // inclusive: protein stability index at least 3? input: KLLSVIVLMLMLLLAVPNIILTNQ [W8L]
A: Condition not met

Q: Is reported protein stability index greater than or equal to 3 here: KLLSVIVWMLMLLLACPNIILTNQ [V16C]
A: Condition met

Q: Is the recorded value of protein stability index equal to or greater than 3 for this variant? KLLGVIVWMLMLLLAVPNIILTNQ [S4G]
A: Condition not met

Q: Please tell me: is the variant KLLSVIVWMLYLLLAVPNIILTNQ [M11Y] at or over 3 in terms of protein stability index?
A: Condition not met

Q: Check if protein stability index >= 3 (inclusive). Item: HLLSVIVWMLMLLLAVPNIILTNQ [K1H]
A: Condition met

Q: Record KLLSVIVRMLMLLLAVPNIILTNQ [W8R] ; criterion: protein stability index no lower than 3. Met?
A: Condition not met

Q: Is protein stability index for KLLSVIVWMLMLLLAVQNIILTNQ [P17Q] at or above 3?
A: Condition not met

Q: Test whether the variant KLLSVIVWMLMLLLAVPNIILTIQ [N23I] records protein stability index of 3 or higher.
A: Condition not met

Q: // inclusive: protein stability index at least 3? input: KLLRVIVWMLMLLLAVPNIILTNQ [S4R]
A: Condition not met

Q: Is the recorded value of protein stability index equal to or greater than 3 for this variant? KLLSVIVWMLMLGLAVPNIILTNQ [L13G]
A: Condition not met

Q: State whether the measured protein stability index reaches 3, counting equality as reaching it, for KLLSVTVWMLMLLLAVPNIILTNQ [I6T]
A: Condition not met

Q: Please tell me: is the variant KLLSVIVEMLMLLLAVPNIILTNQ [W8E] at or over 3 in terms of protein stability index?
A: Condition met

Q: Textbook exercise: given the entry KLLSVIVWMLMLLLANPNIILTNQ [V16N] , state whether its protein stability index is greater than or equal to 3.
A: Condition met

Q: Is reported protein stability index greater than or equal to 3 here: KLLSVIVWMLMLLLAVMNIILTNQ [P17M]
A: Condition not met

Q: Identify whether the reported protein stability index of the following variant is 3 or greater: KLLSVIVYMLMLLLAVPNIILTNQ [W8Y]
A: Condition not met

Q: protein stability index >= 3 for KLLSVIVWMLMLLLAVPNPILTNQ [I19P] ?
A: Condition met
